# TARGET: human TLR9 (Homo sapiens, UniProt Q9NR96)
# Construct: host or cells: HEK-Blue cells (HEK293-derived reporter line)
# Sequence (Q9NR96 26-1032): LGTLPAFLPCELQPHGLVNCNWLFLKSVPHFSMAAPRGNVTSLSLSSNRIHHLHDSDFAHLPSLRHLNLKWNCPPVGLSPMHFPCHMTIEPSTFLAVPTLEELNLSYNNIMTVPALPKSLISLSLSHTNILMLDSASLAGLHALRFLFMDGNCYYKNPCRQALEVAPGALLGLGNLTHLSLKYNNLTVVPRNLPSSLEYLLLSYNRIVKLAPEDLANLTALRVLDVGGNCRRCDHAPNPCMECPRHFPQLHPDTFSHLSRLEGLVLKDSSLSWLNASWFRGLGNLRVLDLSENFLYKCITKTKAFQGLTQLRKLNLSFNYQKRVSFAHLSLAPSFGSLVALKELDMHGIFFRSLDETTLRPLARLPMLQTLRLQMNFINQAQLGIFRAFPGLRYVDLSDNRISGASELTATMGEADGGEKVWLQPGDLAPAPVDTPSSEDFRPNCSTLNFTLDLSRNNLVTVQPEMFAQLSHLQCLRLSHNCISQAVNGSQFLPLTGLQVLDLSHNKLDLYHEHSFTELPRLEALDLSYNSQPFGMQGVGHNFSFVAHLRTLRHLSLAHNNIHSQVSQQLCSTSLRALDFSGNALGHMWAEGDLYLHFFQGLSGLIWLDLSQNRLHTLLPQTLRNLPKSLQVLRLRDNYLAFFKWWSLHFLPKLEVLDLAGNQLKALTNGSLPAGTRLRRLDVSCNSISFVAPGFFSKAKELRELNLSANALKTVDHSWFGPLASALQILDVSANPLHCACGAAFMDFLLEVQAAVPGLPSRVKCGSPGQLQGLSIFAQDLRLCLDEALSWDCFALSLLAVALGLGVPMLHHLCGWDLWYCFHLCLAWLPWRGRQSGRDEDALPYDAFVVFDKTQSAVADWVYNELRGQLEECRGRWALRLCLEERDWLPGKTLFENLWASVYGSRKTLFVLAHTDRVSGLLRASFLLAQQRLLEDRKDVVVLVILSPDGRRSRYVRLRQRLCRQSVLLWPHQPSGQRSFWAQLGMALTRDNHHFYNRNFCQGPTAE
# ASSAY_PROTOCOL: TLR9 inhibition reporter assay (HEK-Blue cells, secreted embryonic alkaline phosphatase reporter)
# Format: cell-based
REPORTED_ENDPOINT: pIC50
// pIC50 is dimensionless: -log10 of concentration (M)

Consider the following illustrative entries.
                                   compound  observed_result
0  Cn1c(-c2ccc(S(C)(=O)=O)cc2)nc2ccc(C3CCN(C4CC5CCC(C4)N5CC4CC4)CC3)c(F)c21 (centres unmarked) [Example 268]             7.22
1  COCCN1C2CCC1CC(N1CCC(c3ccc4nc(-c5ccc(S(C)(=O)=O)cc5)n(C)c4c3F)CC1)C2 (single isomer, unassigned) [Example 276]             6.77
2  Cn1c(-c2ccc(S(C)(=O)=O)cc2)nc2cc(C3CCN(C4CC5CCC(C4)N5CC4CC4)CC3)cc(F)c21 (centres unmarked) [Example 218]             6.85

Entry Cn1c(-c2ccc(S(C)(=O)=O)cc2)nc2c(F)c(C3CCN(C4CC5CCC(C4)N5C4CCOCC4)CC3)ccc21 (centres unmarked) [Example 197] : reported pIC50 = ? 6.80

Entry COc1ccc(-c2nc3c(C)cc(C4CCN(C5CC6CCC(C5)N6C5CCC5)CC4)cc3n2C)cc1OC (centres unmarked) [Example 146] : reported pIC50 = ? 7.15

Entry CC(C)CN1C2CCC1CC(N1CCC(c3ccc4nc(-c5ccc(S(C)(=O)=O)cc5)n(C)c4c3F)CC1)C2 (single isomer, unassigned) [Example 266] : reported pIC50 = ? 7.01

Entry Cn1c(-c2ccc(S(C)(=O)=O)cc2)nc2cc(F)c(C3CCN(C4CC5CCC(C4)N5C4CCOCC4)CC3)cc21 (centres unmarked) [Example 236] : reported pIC50 = ? 7.00

Entry `CS(=O)(=O)c1ccc(-c2nc3ccc(C4CCN(C5CCN(C6CCOCC6)CC5)CC4)c(F)c3[nH]2)cc1` : reported pIC50 = ? 6.49
